TARGET OR TEST SYSTEM: GABA A receptor alpha-3/beta-2/gamma-2 (Rattus norvegicus) (UniProt P18508+P20236+P63138)
TEST NAME: In vitro efficacy as change in chloride current against GABA-A alpha-3-beta-2-gamma-2 subunit expression
Format: functional
We label by threshold. Values of Cl - current change strictly beneath 0.5 are Satisfied. Values of 0.5 and up are Not satisfied.

Known results for molecules:
Task: Quick check: does COc1cccc(-c2ncn3c2c(=O)n(C(C)C)c2ccccc23)c1 have Cl - current change under 0.5?
Output: Satisfied

Task: Quick check: does CC(C)n1c(=O)c2c(-c3cccc(C(F)(F)F)c3)ncn2c2ccccc21 have Cl - current change under 0.5?
Output: Satisfied

Task: Quick check: does CC(C)n1c(=O)c2c(-c3ccc(F)cc3)ncn2c2cccc(Cl)c21 have Cl - current change under 0.5?
Output: Not satisfied

Task: Quick check: does COc1ccc(-c2ncn3c2c(=O)n(C(C)C)c2c(Cl)cccc23)cc1 have Cl - current change under 0.5?
Output: Not satisfied

Task: Quick check: does Cc1cccc2c1n(C(C)C)c(=O)c1c(-c3ccc(F)cc3)ncn12 have Cl - current change under 0.5?
Output: Not satisfied

Further cases:
Task: Quick check: does COc1ccc(-c2ncn3c2c(=O)n(C(C)C)c2c(C)cccc23)cc1 have Cl - current change under 0.5?
Output: Not satisfied

====

A collection of compounds and their measured ED50
Species: Mus musculus
TEST NAME: Antagonism of benzodiazepine traction in mice
Assay type: functional

# count of solved cases: 2
Task: Need ED50, item COc1ccc(-c2ncn3c2CN(C(=O)N2CC(C)N(C)C(C)C2)c2ccccc2-3)cc1 (stereo unspecified)
Output: > 30 mg/kg

Task: Need ED50, item O=C(N1CCOCC1)N1Cc2c(-c3ccc(F)cc3)ncn2-c2ccc(F)cc21
Output: > 30 mg/kg

Further cases:
Task: Need ED50, item CC(C)OC(=O)N1Cc2c(-c3ccc(F)cc3)ncn2-c2ccccc21
Output: > 30 mg/kg

Task: Need ED50, item CC1CN(C(=O)N2Cc3c(-c4ccc(F)cc4)ncn3-c3ccccc32)CC(C)N1C (stereo unspecified)
Output: > 30 mg/kg

Task: Need ED50, item CC1CN(C(=O)N2Cc3c(-c4ccc(F)cc4)ncn3-c3cccc(Cl)c32)CC(C)N1 (stereo unspecified)
Output: > 30 mg/kg

====

TARGET OR TEST SYSTEM: GABA-A receptor; anion channel (Rattus norvegicus) (UniProt O09028+P15431+P18506+P18508+P19969+P20236+P23574+P23576+P28471+P28473+P30191+P62813+P63079+P63138+Q91ZM7+Q9ES14)
A collection of molecules and their measured TBPS shift
Please reply with the number alone, leaving off any unit.

# count of solved cases: 3
Task: Need TBPS shift, item CC1CN(C(=O)N2Cc3c(-c4ccc(F)cc4)ncn3-c3ccc(F)cc32)CC(C)N1C (stereo unspecified)
Output: 0.64

Task: Need TBPS shift, item O=C(c1cccc(F)c1)N1Cc2c(-c3ccc(F)cc3)ncn2-c2ccccc21
Output: 1.06

Task: Need TBPS shift, item CN(C)C(=O)N1Cc2c(-c3ccc(F)cc3)ncn2-c2ccccc21
Output: 0.53

Further cases:
Task: Need TBPS shift, item Cc1ccc(-c2ncn3c2C(C)(C)N(C(=O)N2CCCC2)c2ccccc2-3)cc1
Output: 1.05

Task: Need TBPS shift, item CC1CN(C(=O)N2Cc3c(-c4ccc(F)cc4)ncn3-c3cccc(Cl)c32)CC(C)N1C (stereo unspecified)
Output: 0.62

Task: Need TBPS shift, item O=C(N1CCCCC1)N1Cc2c(-c3ccccc3)ncn2-c2ccccc21
Output: 0.52

Task: Need TBPS shift, item CC(C)n1c(=O)c2c(-c3ccc(Cl)cc3)ncn2c2ccccc21
Output: 0.74

Task: Need TBPS shift, item COc1ccc(-c2ncn3c2CN(C(=O)N2CC(C)NC(C)C2)c2ccccc2-3)cc1 (stereo unspecified)
Output: 0.31

Task: Need TBPS shift, item COc1ccc(-c2ncn3c2c(=O)n(C(C)C)c2c(Cl)cccc23)cc1
Output: 1.04
